Test system: SNB-19 CNS
assayRemarks: NCI-60 one-dose screen, 48 h (100 = growth as untreated, 0 = no growth, -100 = all killed)
settings: 10 µM
This is part of a sample that, as a whole, favours compounds with a hit. Of some 83,000 tested, about 20% had one in any assay.
growth values for the compounds below.
The reply should be a number in %, with the unit left off.

As a guide, the following entries are already answered.
CS(=O)(=O)Nc1ccc(Nc2c3ccccc3nc3cc(N)ccc23)cc1
22.2
CCN(CC)CCC(CNc1c(C)cnc2cc(Cl)ccc12)c1ccc(Cl)cc1 (stereo unspecified)
68.1
COc1ccc(NC2=NC(C)(CO)CS2)cc1 (stereo unspecified)
103
COC(=O)C(=C\c1ccc2c(c1)OCO2)/C(=C/c1ccc2c(c1)OCO2)C(=O)OC
106
O=C(CC(C(=O)c1ccccc1)N1CCOCC1)c1ccccc1 (stereo unspecified)
95.6

Form: item CCCCCCN1C(=O)C2=C(c3ccc(Cl)cc3)Nc3c(c(C)nn3-c3ccccc3)C2c2ccccc21 (stereo unspecified) ; test system SNB-19 CNS; growth: 89.4
